target: T1, human monomeric EGFR (EGFR.mmh) (human, UniProt P00533 25-647); assay: SPR 37C, mAb captured by anti-human Fc, EGFR.mmh analyte
T1 construct: Soluble monomeric EGFR construct
Note to self: use T only for koff readings below 0.0007 s⁻¹; a reading exactly at 0.0007 s⁻¹ still gets F.

Check if koff falls below 0.0007 s⁻¹ for H1H143P (antibody, human IgG1, V domains shown, Human IgG1 Fc (H1H)) VH: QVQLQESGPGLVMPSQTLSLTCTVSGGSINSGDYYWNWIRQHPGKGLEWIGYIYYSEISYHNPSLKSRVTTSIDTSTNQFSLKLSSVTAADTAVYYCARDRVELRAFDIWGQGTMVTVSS VL: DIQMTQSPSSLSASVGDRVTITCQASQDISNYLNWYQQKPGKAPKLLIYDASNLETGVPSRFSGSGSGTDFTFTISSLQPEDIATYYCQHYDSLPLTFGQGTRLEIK .
F

Check if koff falls below 0.0007 s⁻¹ for H1H151P (antibody, human IgG1, V domains shown, Human IgG1 Fc (H1H)) VH: QVQLQESGPGLVNPSQTLSLTCTVSGGSINSGDYYWSWVRQHPGKGLEWIGYIYYSGSTYYNPSLKSRVTISVDTSKNQFSLKLSSVTVADTAVYYCARVGYSKGYFDSWGQGTLVTVSS VL: DIQMTQSPSTLSASVGDRVTITCRASESISSWLAWYQQKPGKAPKVLIYDASSLESGVPSRFSGSGSGTEYTLTISSLQPDDFASYYCQQYKSYWTFGQGTKVEIK .
F

Check if koff falls below 0.0007 s⁻¹ for H1H163P (antibody, human IgG1, V domains shown, Human IgG1 Fc (H1H)) VH: QVQLVESGGGVVQPGRSLRLSCAASGFTFSNYGMHWVRQAPGKGLEWVTLIEHDGSNKNYVDSVKGRFTISRDNSKNTLYLQMNSLRVEDTAVYYCAKDRITGTPWYGMDVWGQGTTVTVSS VL: DIQMTQSPSSLSASVGDRVTITCRASQDIADYLAWFQQKPGKAPKSLIFAASSLESWVPLKFSGSGSGTDFTLTISSLQPEDFATYYCQQYNRFPITFGQGTRLEIK .
T

Check if koff falls below 0.0007 s⁻¹ for H1H147P (antibody, human IgG1, V domains shown, Human IgG1 Fc (H1H)) VH: EVQLVESGPGLVQPSQTLSLTCTVSGGSINSGDFYWSWIRQHPGKGLEWIGHIYYSGITYYSPSLKSRLTISVDTSKNQFSLKLSSVTAADTAVYYCARKRVTGEVDYWGQGTLVTVSS VL: DIQMTQSPSSLSASVGDRITITCQANQDINNYLNWYQQKPGKAPKLLISDASNLETGVPSRFSGSGSGTDFTFTISSLQPEDIATYYCQQYDNLPPTFGQGTRLEIKR .
T

Check if koff falls below 0.0007 s⁻¹ for H1H103N (antibody, human IgG1, V domains shown, Tested in human IgG1 Fc format (H1H); also called H1M103N) VH: EVQLVESGGGLVQPGGSLRLSCAASGFTFSSYDMHWVRQTTGKGLEWVSGIGTAGDTYYPGSVKGRFTISREDAKNSLYLQMNSLRAGDTAVYYCARVGYDWNFVAFDYWGQGTLVTVSS VL: DIVMTQSPLSLPVTPGEPASISCRSSQSLLHSNGYNYLDWYLQKPGQSPQLLIHLVSIRASGVPDRFSGSGSGTDFTLKISRVEAEDVGIYYCMQALQTPWTFGQGTKVEIK .
F
